So I've got a bunch of compounds here, and I need their Ki values.
tested.system: Factor Xa (Homo sapiens)
Sequence (P00742 235-488 limits assumed): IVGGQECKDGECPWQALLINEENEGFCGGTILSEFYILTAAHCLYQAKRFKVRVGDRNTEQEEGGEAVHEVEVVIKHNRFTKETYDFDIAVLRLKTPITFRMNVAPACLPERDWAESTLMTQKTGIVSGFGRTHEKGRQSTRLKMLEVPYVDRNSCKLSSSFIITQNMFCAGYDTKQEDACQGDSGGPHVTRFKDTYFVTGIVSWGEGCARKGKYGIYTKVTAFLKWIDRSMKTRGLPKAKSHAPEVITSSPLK
Sequence (P00742 41-179 partner limits assumed): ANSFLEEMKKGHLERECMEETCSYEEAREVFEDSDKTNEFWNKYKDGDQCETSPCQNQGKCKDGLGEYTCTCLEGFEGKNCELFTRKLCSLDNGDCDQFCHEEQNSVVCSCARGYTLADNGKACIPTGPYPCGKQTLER
measurement.notes: Chromogenic kinetic enzyme assay of Factor Xa
Format: biochemical
measurement.context: Table 4.1; read-out: Factor Xa Ki
Experimental: Inhibitors (11-pt serial dilutions, 0-20 μM final concentration) were serially diluted in DMSO (2% DMSO final concentration) and then mixed with recombinant thrombin (0.15 nM final concentration) or Factor Xa (0.35 nM final concentration) in TNC buffer (25 mM Tris, 150 mM NaCl, 5 mM CaCl2, 0.01% TRITON X-100, pH 8) using clear 384 well plates. […] Changes in absorbance at 405 nm were measured over time in a Biotek Synergy 2 plate (Winnoski, Vt.). […]
Numbers only, in µM.

Would you please look over these solved cases?
compound	Ki / µM
CC(=O)N[C@@H](CCCNC(=N)N)C(=O)N[C@@H](CCC(N)=O)C(=O)N[C@@H](CC(C)C)C(=O)N[C@@H](CCCNC(=N)N)C(=O)c1nccs1 [Compound 5e, Ac-RQLR(SEQ ID NO: 6)-kt]	0.0081
CC(=O)N[C@@H](CCCCN)C(=O)N[C@@H](CCC(N)=O)C(=O)N[C@@H](CC(C)C)C(=O)N[C@@H](CCCNC(=N)N)C(=O)c1nccs1 [Compound 5, Ac-KQLR(SEQ ID NO: 1)-kt]	0.17
CC(=O)N[C@@H](CO)C(=O)N[C@@H](CCCCN)C(=O)N[C@@H](Cc1ccccc1)C(=O)N[C@@H](CCCNC(=N)N)C(=O)c1nccs1 [Compound 6c, Ac-SKFR(SEQ ID NO: 13)-kt]	0.53
CC(=O)N[C@@H](CO)C(=O)N[C@@H](CCCCN)C(=O)N[C@@H](CC(C)C)C(=O)N[C@@H](CCCNC(=N)N)C(=O)c1nccs1 [Compound 6, Ac-SKLR(SEQ ID NO: 10)-kt]	3.06
CC(=O)N[C@@H](CO)C(=O)N[C@@H](Cc1c[nH]c2ccccc12)C(=O)N[C@@H](CC(C)C)C(=O)N[C@@H](CCCNC(=N)N)C(=O)c1nccs1 [Compound 6g, Ac-SWLR(SEQ ID NO: 17)-kt]	0.759

Ask: Please indicate Ki recorded for CC(=O)N[C@@H](CCCCN)C(=O)N[C@@H](CCC(N)=O)C(=O)N[C@@H](Cc1ccccc1)C(=O)N[C@@H](CCCNC(=N)N)C(=O)c1nccs1 [Compound 5c, Ac-KQFR(SEQ ID NO: 4)-kt]
Result: 0.0788
